# credit: the supplement of paper PMC12764529

assay: folding stability dG unfold from trypsin proteolysis; higher = more stable
Would you please tag the item satisfied when its folding stability dG unfold is 0.7 kcal/mol or above, and not satisfied when it is below?

Residue Sequence: SAGGGSLEKIREAGKKGYLVRIELETGERRVIPIEDLIRDPRFGPDVPLAELRVRRIELLPPDDGLPLSAGG [r13_587_TrMRF]
Label Class: satisfied

Residue Sequence: SAGGSAGGSYSKNGQPPPTREIEIIILVEDPEEAENKADELSEMLGMPIKVEIIPEEDAKKMISAGGSAGGS [r12_766_TrROS]
Label Class: not satisfied

Residue Sequence: SAGGSAGGSMIKVKITYPNGEEKTIEIEAETEEEAEEAAKKLAEELGKDVKVEVEKVSPEELKSAGGSAGGS [r12_385_TrROS_Hall]
Label Class: satisfied

Residue Sequence: SAGGKEVKITFKAPKEEAVPKVKKAAEEYGVTVKSIDYDPETGKVTVVVDDSVPEEKVKEAFEKVLKSAGGS [r8_338_TrMRF]
Label Class: satisfied

Residue Sequence: SAGGSVITEEEKEKIKKEYPNLDIKLKALKPGETITYPNGTKVYGSPNGFLVEITNPDGTKTVIKESAGGSA [r2_166_JUSTAS]
Label Class: not satisfied

Residue Sequence: SAGEEIEELAKKLADELREKYPELEVKVEVVEVTVKTTVVKDKETGKLYTKTEITVKLKVEVVPKEELSAGG [r19_293_TrROS_Hall]
Label Class: satisfied

---

assay: folding stability dG unfold from trypsin proteolysis; higher = more stable

Residue Sequence: SAGGSAGGSSSVTPVPETTLVTLTPPDGSPPVLGTVFPATGTMLLFYPDSVLLLPLGPGTTLFSAGGSAGGS [r12_536_JUSTAS]
folding stability dG unfold (kcal/mol): 0.888
//
Residue Sequence: SAGGSAGGSAGGSSFTIKVELKDENGNKYTITVTGTGSAETVKKELEKKYPNKIVKITGSAGGSAGGSAGGS [r4_412_TrMRF]
folding stability dG unfold (kcal/mol): 1.93
//
Residue Sequence: SAGGWRYILRQIREAAKNGEEVTINFPPGMNPSFLLSWIRKENGAEVKPITVKPNPNGYGTINIKVKSAGGS [r16_318_TrROS]
folding stability dG unfold (kcal/mol): 1.39
//
Residue Sequence: SAGGSAGGSAGGSKPMYLFTVETENGKKLVIEAKSLEEALKALEKAGYKIKKVEVVKLPSAGGSAGGSAGGS [r4_213_TrROS_Hall]
folding stability dG unfold (kcal/mol): 3.36

---

test: folding stability dG unfold from chymotrypsin proteolysis; higher = more stable
Mark met for reported folding stability dG unfold of 3 kcal/mol or greater; mark not met for anything smaller.

Residue Sequence: SAGGRRPVTAEEAADRLMKELGIPGLKNIKDVTMEYEVYDPDGKPWSRVDITIKIKMPPEQRDRLKKLSAGG [r13_552_TrROS]
Label Class: not met
--
Residue Sequence: SAGGSAGGSGSSSMPVTVEVKPLATEVDPSNGLVTVTELVTVTRGDTTTLTVTTTTLPPGAPASAGGSAGGS [r12_1010_JUSTAS]
Label Class: not met
--
Residue Sequence: SAGGSAGGSSPVPVKVSANSVEPGESSSSNINIPKEALEKDSLTPEELKKILQKQGPNVTITGSAGGSAGGS [r20_221_JUSTAS]
Label Class: not met
--
Residue Sequence: SAGGSAGGSMVFESTSVYTFPEQNTVVVTKTTTTVTKTPDGSSSVSTSTTTTVLTVPPPEPLVSAGGSAGGS [r12_277_JUSTAS]
Label Class: met
--
Residue Sequence: SAPLSEEEARQLLEEVAEELERETGASYRVELFRDPATGRWFGRIELPDGRVYTVTYDPATGEVTVTVEASA [r9_9_JUSTAS]
Label Class: met
--
Residue Sequence: SAGGMKKITITIPLEELKNLTPEERKEKLKELAEEIAKKLGLPPGAKIKKIEVEEVDGKLYVKIEIESAGGS [r16_368_TrROS_Hall]
Label Class: met
--
Residue Sequence: SAGGSASAPVPTSVSVSVSSDPASGLTTIPTTVTYNGKTFPMSVTTTPSGTVVTKVGGSTFTVPAASAGGSA [r15_507_JUSTAS]
Label Class: not met
--
Residue Sequence: SAGGSAGGRVVLSAEEIEKLKPGDEIELLVRDKETGEWRRVKARVVRIERVGDRVYVEIEIEPESAGGSAGG [r6_753_TrROS_Hall]
Label Class: met
--
Residue Sequence: SAGGSAMKGLSVERVELDGEEVVRIEIETPAGGSETLELSLRDPEAVEAYLAALKAAGVIAEILPESAGGSA [r15_575_JUSTAS]
Label Class: not met
--
Residue Sequence: SAGGSAGGSAGKEIIKNIPKGVKVLKIEPLPGKSGTYVKIEVEFPDPNGVKHRLTFIAPESAGGSAGGSAGG [r17_140_TrMRF]
Label Class: not met
--
Residue Sequence: SAGGSAGGSAGEIEVTVTFTGDDGYVVEVKYTFEVPEPNNPIIKKVEVKVKKLKPNEPASSAGGSAGGSAGG [r11_517_TrMRF]
Label Class: not met
--
Residue Sequence: SAGGSAGGSVVPVKAVFKLPDGDEVEGLALVDNRPDGSLVVLFQLPGTGETVGSATAELLKVEGSAGGSAGG [r6_254_TrMRF]
Label Class: not met
--
Residue Sequence: SAGWQTIDFPIPPGEDIPIPIGNRPLRIQVDPNKNKYEIFNPFLGYRISIDVDPGAGWIKITIEPLKPPSAG [r5_302_TrROS]
Label Class: met
--
Residue Sequence: SAGGMPPGDPVKVNVQIRIRMRDPNGKKPELTVPIEYNVQSKEDARDAILKIAKELADEYGYEIEVFSAGGS [r8_149_TrROS]
Label Class: not met

---

experiment: folding stability dG unfold from trypsin proteolysis; higher = more stable
Listed here are sequences together with their documented folding stability dG unfold.
Assay Endpoint: folding stability dG unfold (kcal/mol)

Residue Sequence: SAGGSAGGSAGGSWKIDKFTSIERTDGGYVIRIRMENPDGPPMKQTFYFPPGDDELANISAGGSAGGSAGGS [r4_253_TrROS]
Unit Of Measure: kcal/mol
Meas Value: 0.285
//
Residue Sequence: SAGGSAGGSAEYRVVVVPPVPTVLIFVKPDRVYVVDLDPATGRATIRPVNVPPNVLPESLLTSAGGSAGGSA [r18_59_TrMRF]
Unit Of Measure: kcal/mol
Meas Value: 1.27
//
Residue Sequence: SAPLSEEEARQLLEEVAEELERETGASYRVELFRDPATGRWFGRIELPDGRVYTVTYDPATGEVTVTVEASA [r9_9_JUSTAS]
Unit Of Measure: kcal/mol
Meas Value: 4.25

---

test: folding stability dG unfold (combined trypsin and chymotrypsin); higher = more stable
// reported folding stability dG unfold per item
Assay Endpoint: folding stability dG unfold (kcal/mol)

Residue Sequence: SAGGSAGGYWKVEIKNGMTFSIPGMTLDEAKNHARWHGFPMPIDKIEIEPVKPPPPPPKDPDDQSAGGSAGG [r6_688_TrROS]
Assay Endpoint: folding stability dG unfold
Unit Of Measure: kcal/mol
Meas Value: 2.75
--
Residue Sequence: SAGGSAGGSAGKIVIVVDEDGNYTLKVNGKTYVFKTPEEAKAAAEELKKAGIEIEIVEVPSAGGSAGGSAGG [r17_35_TrROS_Hall]
Assay Endpoint: folding stability dG unfold
Unit Of Measure: kcal/mol
Meas Value: 4.85
--
Residue Sequence: SAGGDKKWTAEFDVRKRDDTVEVTLTFTDPNGNETTETYTLTDDELAKLLAELPPEFKNVTRNEVLESAGGS [r16_298_JUSTAS]
Assay Endpoint: folding stability dG unfold
Unit Of Measure: kcal/mol
Meas Value: 1.85

---

Reported folding stability dG unfold values for a set of sequences
assay: folding stability dG unfold from chymotrypsin proteolysis; higher = more stable

Residue Sequence: SAGGSAGGSVLPDVLRTLFPDAKVTVKVTEVSETSATVDVEVEVPVPGGSTRRFRLKLEVPLSSAGGSAGGS [r20_78_TrMRF]
folding stability dG unfold [kcal/mol]: 2.34
//
Residue Sequence: SAGGSAGGSAGGMKIPPSLLTEVKESIVPTPEGSTKITTVTAKVPGTGEVVTYTLTTPVASAGGSAGGSAGG [r7_348_JUSTAS]
folding stability dG unfold [kcal/mol]: -0.744
//
Residue Sequence: SAGGSAGGSAGMTLTLEFTDPEVAIPLAEKLAEELGLELVEIEEREEGERPVYLVTLKVPSAGGSAGGSAGG [r11_232_JUSTAS]
folding stability dG unfold [kcal/mol]: 1.52
//
Residue Sequence: SAGEKFEPVEEKELTLKITLKDKDGNEKEVEIKVKVEVVKNPDGTLTVRAEITFEDGTKIELELEIKLPSAG [r5_57_TrROS_Hall]
folding stability dG unfold [kcal/mol]: 3.19
//
Residue Sequence: SAGGSAGGSAGGALEEKAKEIIEELKKKGIKVKEVKTSPNEITITFEDGSTKKIPIINGSAGGSAGGSAGGS [r10_169_JUSTAS]
folding stability dG unfold [kcal/mol]: 2.54
//
Residue Sequence: SAGGMIEVFVEGLTLEETLRRLAEEYPDVPEVVVFFPDGTAVFFRRDGDEVEVVEVVPVGPVAPDELSAGGS [r8_225_TrMRF]
folding stability dG unfold [kcal/mol]: 3.12
